Biological target: Glutamate NMDA receptor; Grin1/Grin2a (Rattus norvegicus, UniProt P35439+Q00959)
Sequence (Q00959 whole entry, other chains not shown): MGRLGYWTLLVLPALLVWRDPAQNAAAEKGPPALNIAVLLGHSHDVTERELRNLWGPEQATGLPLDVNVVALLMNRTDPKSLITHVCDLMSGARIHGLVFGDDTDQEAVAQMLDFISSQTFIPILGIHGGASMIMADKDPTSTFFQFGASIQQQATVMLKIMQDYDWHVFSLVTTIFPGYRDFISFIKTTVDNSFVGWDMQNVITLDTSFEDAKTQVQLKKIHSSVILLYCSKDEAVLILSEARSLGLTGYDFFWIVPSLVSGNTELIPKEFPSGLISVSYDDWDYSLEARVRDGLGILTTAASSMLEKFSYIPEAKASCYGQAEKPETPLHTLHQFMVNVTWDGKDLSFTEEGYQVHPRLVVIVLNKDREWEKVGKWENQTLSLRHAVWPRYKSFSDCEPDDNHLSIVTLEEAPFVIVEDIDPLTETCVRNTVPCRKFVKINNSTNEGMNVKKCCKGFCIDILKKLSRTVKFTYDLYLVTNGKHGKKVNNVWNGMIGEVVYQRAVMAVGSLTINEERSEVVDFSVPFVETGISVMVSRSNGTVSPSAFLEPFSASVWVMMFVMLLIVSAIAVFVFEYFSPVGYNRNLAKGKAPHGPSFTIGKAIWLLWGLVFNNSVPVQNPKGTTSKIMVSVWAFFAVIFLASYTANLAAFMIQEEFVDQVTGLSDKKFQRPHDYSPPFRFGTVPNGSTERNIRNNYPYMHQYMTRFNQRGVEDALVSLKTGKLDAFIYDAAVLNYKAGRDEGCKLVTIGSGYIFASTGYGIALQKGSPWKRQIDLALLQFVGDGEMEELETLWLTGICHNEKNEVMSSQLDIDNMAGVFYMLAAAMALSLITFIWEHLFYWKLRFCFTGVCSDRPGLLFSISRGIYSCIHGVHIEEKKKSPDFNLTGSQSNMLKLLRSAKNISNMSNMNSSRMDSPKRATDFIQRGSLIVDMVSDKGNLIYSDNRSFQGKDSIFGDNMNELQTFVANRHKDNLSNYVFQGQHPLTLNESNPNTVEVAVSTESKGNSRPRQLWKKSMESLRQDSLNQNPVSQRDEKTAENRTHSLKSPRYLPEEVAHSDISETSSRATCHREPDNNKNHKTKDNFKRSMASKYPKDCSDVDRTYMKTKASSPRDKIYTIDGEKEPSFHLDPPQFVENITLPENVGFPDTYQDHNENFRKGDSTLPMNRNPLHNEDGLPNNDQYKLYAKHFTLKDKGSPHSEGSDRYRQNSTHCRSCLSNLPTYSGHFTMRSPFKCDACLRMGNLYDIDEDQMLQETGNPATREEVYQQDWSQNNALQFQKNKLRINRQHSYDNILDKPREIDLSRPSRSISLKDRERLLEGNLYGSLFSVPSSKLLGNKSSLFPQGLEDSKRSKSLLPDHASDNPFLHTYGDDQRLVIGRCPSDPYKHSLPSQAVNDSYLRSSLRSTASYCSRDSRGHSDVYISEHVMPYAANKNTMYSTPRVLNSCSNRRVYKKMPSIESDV
Experiment: Agonist activity at rat GluN1/GluN2A NMDA receptor expressed in Xenopus oocytes measured after 4 days in presence of L-glutamte by two-electrode voltage-clamp recording assay
measuredEndpoint: EC50 (µM)

- N[C@H](CNC(=O)c1ccc(-c2ccc(Cl)c(Cl)c2)o1)C(=O)O: 23
- Cc1ccccc1-c1ccc(C(=O)NC[C@@H](N)C(=O)O)o1: 0.22
- N[C@H](CNC(=O)c1ccc(-c2cccc(Cl)c2)o1)C(=O)O: 4.9

====

Target: Glutamate NMDA receptor; Grin1/Grin2c (Rattus norvegicus) (UniProt P35439+Q00961)
Test: Agonist activity at rat GluN1/GluN2C NMDA receptor expressed in Xenopus oocytes assessed as maximal relative efficacy measured after 4 days in presence of L-glutamte by two-electrode voltage-clamp recording assay relative to glycine
Format: cell-based
Conditions: Oocyte, time 4.0 day
measuredEndpoint: Rmax (%)

• N[C@H](CNC(=O)c1ccc(-c2cccc(C(F)(F)F)c2)o1)C(=O)O = 36
• N[C@H](CNC(=O)c1ccc(-c2ccccc2/C=C/c2ccccc2)o1)C(=O)O = 16
• N[C@H](CNC(=O)c1ccc(-c2cccc3c2OCCO3)o1)C(=O)O = 17
